Test system: Escherichia coli BL21(DE3)
ASSAY TEXT: Ratio of Kcat to Km for Escherichia coli BL21 DE3 beta-lactamase VIM-19 by microacidimetric method
Entries annotated with measured kcat/Km
Quick reminder: number only, in M⁻¹ s⁻¹, skip the unit.

>>> numeric_value("C[C@@H](O)[C@H]1C(=O)N2C(C(=O)O)=C(S[C@@H]3CN[C@H](C(=O)N(C)C)C3)[C@H](C)[C@H]12")
140000
>>> numeric_value("CO[C@@]1(NC(=O)Cc2cccs2)C(=O)N2C(C(=O)O)=C(COC(N)=O)CS[C@@H]21")
80000
>>> numeric_value("C[C@@H](O)[C@H]1C(=O)N2C(C(=O)O)=C(SCCNC=N)C[C@H]12")
370000
>>> numeric_value("CC(C)(O/N=C(\\C(=O)N[C@@H]1C(=O)N2C(C(=O)[O-])=C(C[n+]3ccccc3)CS[C@H]12)c1csc(N)n1)C(=O)O")
70000

Now let's try a different one.
Q: API: value(readout=kcat/Km, system=Escherichia coli BL21(DE3)) for record CO/N=C(\C(=O)N[C@@H]1C(=O)N2C(C(=O)O)=C(COC(N)=O)CS[C@H]12)c1ccco1
A: 400000

----------
Entries annotated with measured kcat/Km
System: Escherichia coli BL21(DE3)
ASSAY TEXT: Ratio of Kcat to Km for Escherichia coli BL21 DE3 beta-lactamase VIM-19 by microacidimetric method
Quick reminder: number only, in M⁻¹ s⁻¹, skip the unit.

Look over these answered cases.
>>> numeric_value("CC1(C)S[C@@H]2[C@H](NC(=O)Cc3ccccc3)C(=O)N2[C@H]1C(=O)O")
"3.6e+06"
>>> numeric_value("CC1(C)S[C@@H]2[C@H](NC(=O)[C@H](N)c3ccc(O)cc3)C(=O)N2[C@H]1C(=O)O")
"3.3e+06"
>>> numeric_value("CCN1CCN(C(=O)N[C@@H](C(=O)N[C@@H]2C(=O)N3[C@@H]2SC(C)(C)[C@@H]3C(=O)O)c2ccccc2)C(=O)C1=O")
"4.3e+06"
>>> numeric_value("C[C@@H](O)[C@H]1C(=O)N2C(C(=O)O)=C(S[C@@H]3CN[C@H](C(=O)Nc4cccc(C(=O)O)c4)C3)[C@H](C)[C@H]12")
30000
>>> numeric_value("CC(=O)OCC1=C(C(=O)O)N2C(=O)[C@@H](NC(=O)Cc3cccs3)[C@H]2SC1")
"1.4e+06"
>>> numeric_value("CO/N=C(\\C(=O)N[C@@H]1C(=O)N2C(C(=O)[O-])=C(C[N+]3(C)CCCC3)CS[C@H]12)c1csc(N)n1")
230000
>>> numeric_value("CO/N=C(\\C(=O)N[C@@H]1C(=O)N2C(C(=O)O)=C(COC(C)=O)CS[C@H]12)c1csc(N)n1")
950000

Q: // query kcat/Km value for entry CC1(C)S[C@@H]2[C@H](NC(=O)[C@H](C(=O)O)c3ccsc3)C(=O)N2[C@H]1C(=O)O
A: 700000

----------
Test system: Escherichia coli BL21(DE3)
ASSAY TEXT: Hydrolytic activity of Escherichia coli BL21 DE3 beta-lactamase VIM-19 by microacidimetric method
Label true when kcat is at or above 30 s⁻¹; otherwise label false.

>>> cat("CO/N=C(\\C(=O)N[C@@H]1C(=O)N2C(C(=O)O)=C(COC(C)=O)CS[C@H]12)c1csc(N)n1")
"true"
>>> cat("C[C@@H](O)[C@H]1C(=O)N2C(C(=O)O)=C(S[C@@H]3CN[C@H](C(=O)N(C)C)C3)[C@H](C)[C@H]12")
"false"
>>> cat("CC(=O)OCC1=C(C(=O)O)N2C(=O)[C@@H](NC(=O)Cc3cccs3)[C@H]2SC1")
"false"

Q: Could you verify whether the entry CCN1CCN(C(=O)N[C@@H](C(=O)N[C@@H]2C(=O)N3[C@@H]2SC(C)(C)[C@@H]3C(=O)O)c2ccccc2)C(=O)C1=O shows kcat of no less than 30 s⁻¹?
A: true

Q: Could you verify whether the entry CC(C)(O/N=C(\C(=O)N[C@@H]1C(=O)N2C(C(=O)[O-])=C(C[n+]3ccccc3)CS[C@H]12)c1csc(N)n1)C(=O)O shows kcat of no less than 30 s⁻¹?
A: false

Q: Could you verify whether the entry CC1(C)S[C@@H]2[C@H](NC(=O)[C@H](N)c3ccc(O)cc3)C(=O)N2[C@H]1C(=O)O shows kcat of no less than 30 s⁻¹?
A: true

Q: Could you verify whether the entry CC1(C)S[C@@H]2[C@H](NC(=O)[C@H](C(=O)O)c3ccsc3)C(=O)N2[C@H]1C(=O)O shows kcat of no less than 30 s⁻¹?
A: true

Q: Could you verify whether the entry CO[C@@]1(NC(=O)Cc2cccs2)C(=O)N2C(C(=O)O)=C(COC(N)=O)CS[C@@H]21 shows kcat of no less than 30 s⁻¹?
A: false

Q: Could you verify whether the entry C[C@@H](O)[C@H]1C(=O)N2C(C(=O)O)=C(S[C@@H]3CN[C@H](C(=O)Nc4cccc(C(=O)O)c4)C3)[C@H](C)[C@H]12 shows kcat of no less than 30 s⁻¹?
A: false

Q: Could you verify whether the entry C[C@H]1[C@H](NC(=O)/C(=N\OC(C)(C)C(=O)O)c2csc(N)n2)C(=O)N1S(=O)(=O)O shows kcat of no less than 30 s⁻¹?
A: false

Q: Could you verify whether the entry C[C@@H](O)[C@H]1C(=O)N2C(C(=O)O)=C(SCCNC=N)C[C@H]12 shows kcat of no less than 30 s⁻¹?
A: false

Q: Could you verify whether the entry CO/N=C(\C(=O)N[C@@H]1C(=O)N2C(C(=O)O)=C(COC(N)=O)CS[C@H]12)c1ccco1 shows kcat of no less than 30 s⁻¹?
A: false

Q: Could you verify whether the entry CC1(C)S[C@@H]2[C@H](NC(=O)Cc3ccccc3)C(=O)N2[C@H]1C(=O)O shows kcat of no less than 30 s⁻¹?
A: true

Q: Could you verify whether the entry CO/N=C(\C(=O)N[C@@H]1C(=O)N2C(C(=O)[O-])=C(C[N+]3(C)CCCC3)CS[C@H]12)c1csc(N)n1 shows kcat of no less than 30 s⁻¹?
A: false
